Give measured Kd for each item. Keep answers brief.
- STUDY_SYSTEM: T1, human programmed cell death protein 1 (hPD-1) C93S (aa 24-167) (Homo sapiens, UniProt Q15116, C93S)
- T1 construct: made as a fusion with a TEV site and human Fc; the Fc was cut off with TEV protease; source: Expi293F, purified (Protein A, TEV cleavage of Fc, SEC; monomer fractions); not shown: Fc (human), C-terminal, cleaved
- T1 sequence (Q15116 24-167 C93S): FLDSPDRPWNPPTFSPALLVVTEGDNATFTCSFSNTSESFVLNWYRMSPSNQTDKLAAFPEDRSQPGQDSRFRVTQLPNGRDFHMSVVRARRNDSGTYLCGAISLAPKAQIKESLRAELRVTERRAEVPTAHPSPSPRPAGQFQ
- ASSAY_NOTES: SPR; Carterra LSA; Fab from the ammonium sulfate precipitate of the culture supernatant immobilised on a NiHC200M chip; hPD-1 (1-1024 nM) or mPD-1-Fc (4-1024 nM) as analyte, fourfold dilution series, no regeneration; HBS-EP pH 7.4, 25 °C; medians over the spots of a construct, KD = koff/kon
- CONDITION_LABEL: one partner purified
All answers are understood in nM, so give the number only.

Briefly, Kd measured for toripalimab Fab H.H35Y (Fab, V domains shown, heavy chain of Sm3 with this change; numbers count from the chain's first residue; as the light chain of Sm3; source: Brevibacillus, culture supernatant (ammonium sulfate precipitate); not shown: 6xHis, C-terminal, kept; 6xHN, C-terminal, kept) VH: QGQLVQSGAEVKKPGASVKVSCKASGYTFTDYEMYWVRQAPIHGLEWIGVIESETGGTAYNQKFKGRVTITADKSTSTAYMELSSLRSEDTAVYYCAREGITTVATTYYWYFDVWGQGTTVTVSS VL: DVVMTQSPLSLPVTLGQPASISCRSSQSIVHSNGNTYLEWYLQKPGQSPQLLIYKVSNRFSGVPDRFSGSGSGTDFTLKISRVEAEDVGVYYCFQGSHVPLTFGQGTKLEIK : 294

The reported value for toripalimab Fab H.H35A (Fab, V domains shown, heavy chain of Sm3 with this change; numbers count from the chain's first residue; as the light chain of Sm3; source: Brevibacillus, culture supernatant (ammonium sulfate precipitate); not shown: 6xHis, C-terminal, kept; 6xHN, C-terminal, kept) VH: QGQLVQSGAEVKKPGASVKVSCKASGYTFTDYEMAWVRQAPIHGLEWIGVIESETGGTAYNQKFKGRVTITADKSTSTAYMELSSLRSEDTAVYYCAREGITTVATTYYWYFDVWGQGTTVTVSS VL: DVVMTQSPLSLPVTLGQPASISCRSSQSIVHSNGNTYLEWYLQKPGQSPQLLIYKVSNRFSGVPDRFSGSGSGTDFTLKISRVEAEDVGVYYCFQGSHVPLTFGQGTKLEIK in terms of Kd is 2470

Measured Kd of toripalimab Fab L.P100G (Fab, V domains shown, as the heavy chain of Sm3; light chain of Sm3 with this change; numbers count from the chain's first residue; source: Brevibacillus, culture supernatant (ammonium sulfate precipitate); not shown: 6xHis, C-terminal, kept; 6xHN, C-terminal, kept) VH: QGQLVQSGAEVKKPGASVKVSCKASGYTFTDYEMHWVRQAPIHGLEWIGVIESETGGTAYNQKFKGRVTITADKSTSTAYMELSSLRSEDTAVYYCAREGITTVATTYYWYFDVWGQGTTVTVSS VL: DVVMTQSPLSLPVTLGQPASISCRSSQSIVHSNGNTYLEWYLQKPGQSPQLLIYKVSNRFSGVPDRFSGSGSGTDFTLKISRVEAEDVGVYYCFQGSHVGLTFGQGTKLEIK : 4.99
